system: LCLC-103H; test: relative viability (nuclei count vs DMSO), 5 days (fraction); higher = more cells survive; details: first compound 2 µM
experimental.endpoint: relative viability

>  <compound>
COCC1(CO)C(=O)C2CCN1CC2 (stereo unspecified) [PRIMA-1MET] + COc1cc2c(Oc3ccc(NC(=O)C4(C(=O)Nc5ccc(F)cc5)CC4)cc3F)ccnc2cc1OCCCN1CCOCC1 [Foretinib] (partner 0.25 µM)

>  <obs.value>
0.698

$$$$
>  <compound>
COCC1(CO)C(=O)C2CCN1CC2 (stereo unspecified) [PRIMA-1MET] + N=C(N)NC(=N)NCCc1ccccc1 [Phenformin] (partner 250 µM)

>  <obs.value>
0.315

$$$$
>  <compound>
COCC1(CO)C(=O)C2CCN1CC2 (stereo unspecified) [PRIMA-1MET] + CC(C)C[C@H](NC(=O)[C@H](Cc1ccccc1)NC(=O)c1cnccn1)B(O)O [Bortezomib] (partner 0.002 µM)

>  <obs.value>
1.04

$$$$
>  <compound>
COCC1(CO)C(=O)C2CCN1CC2 (stereo unspecified) [PRIMA-1MET] + O=C(CCCCCCC(=O)Nc1ccccc1)NO [Vorinostat] (partner 1 µM)

>  <obs.value>
0.558

$$$$
>  <compound>
COCC1(CO)C(=O)C2CCN1CC2 (stereo unspecified) [PRIMA-1MET] + Nc1nc2[nH]cc(CCc3ccc(C(=O)N[C@@H](CCC(=O)O)C(=O)O)cc3)c2c(=O)[nH]1 [Pemetrexed] (partner 0.2 µM)

>  <obs.value>
0.459

$$$$
>  <compound>
COCC1(CO)C(=O)C2CCN1CC2 (stereo unspecified) [PRIMA-1MET] + C[C@@H](Oc1cc(-c2cnn(C3CCNCC3)c2)cnc1N)c1c(Cl)ccc(F)c1Cl [Crizotinib] (partner 1 µM)

>  <obs.value>
0.894

$$$$
